Recorded Relative Binding Affinity to Glucocorticoid Receptor, % for the following compounds
- Assay Target: Glucocorticoid Receptor (Homo sapiens)
- Sequence (P04150 whole entry, species assumed): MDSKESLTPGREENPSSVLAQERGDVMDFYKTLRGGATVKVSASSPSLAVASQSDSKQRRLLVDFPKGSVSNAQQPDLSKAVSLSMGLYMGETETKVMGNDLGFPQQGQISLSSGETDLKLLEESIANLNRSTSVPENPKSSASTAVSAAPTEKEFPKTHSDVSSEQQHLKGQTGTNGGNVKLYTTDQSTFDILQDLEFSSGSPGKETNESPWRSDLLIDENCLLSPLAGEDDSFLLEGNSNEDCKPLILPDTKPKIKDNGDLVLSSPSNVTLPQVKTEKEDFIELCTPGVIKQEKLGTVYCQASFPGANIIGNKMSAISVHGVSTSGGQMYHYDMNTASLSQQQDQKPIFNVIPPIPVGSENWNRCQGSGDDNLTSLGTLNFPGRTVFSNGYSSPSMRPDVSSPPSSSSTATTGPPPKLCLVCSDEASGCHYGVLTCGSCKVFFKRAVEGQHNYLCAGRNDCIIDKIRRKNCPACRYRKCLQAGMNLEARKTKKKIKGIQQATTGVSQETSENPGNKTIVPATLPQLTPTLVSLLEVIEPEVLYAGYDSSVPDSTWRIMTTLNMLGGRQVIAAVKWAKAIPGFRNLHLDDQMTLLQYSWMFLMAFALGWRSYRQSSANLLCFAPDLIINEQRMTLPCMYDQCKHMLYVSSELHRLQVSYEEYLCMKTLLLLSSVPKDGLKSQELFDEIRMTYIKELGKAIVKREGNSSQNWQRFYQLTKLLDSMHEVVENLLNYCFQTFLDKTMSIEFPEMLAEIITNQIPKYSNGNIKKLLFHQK
- Protocol Summary: Glucocorticoid receptor binding, relative binding affinity (RBA)
- Experimental Setup: RBA relative to dexamethasone = 100
Assay Readout: Relative Binding Affinity to Glucocorticoid Receptor, % (%)

>  <Compound>
COc1cccc(C2CC3(C)C(CCC3(O)C#Cc3ccc(OC(C)=O)cc3)C3CCC4=CC(=O)CCC4=C23)c1 (stereo not shown)

>  <Assay Target>
Glucocorticoid Receptor (Homo sapiens)

>  <Quantitative Readout>
98

$$$$
>  <Compound>
COc1cccc(C2CC3(C)C(CCC3(O)C#Cc3ccc(-n4cccc4)cc3)C3CCC4=CC(=O)CCC4=C23)c1 (stereo not shown)

>  <Assay Target>
Glucocorticoid Receptor (Homo sapiens)

>  <Quantitative Readout>
57

$$$$
>  <Compound>
COc1cccc(C2CC3(C)C(CCC3(O)C#Cc3cccc(C=NO)c3)C3CCC4=CC(=O)CCC4=C23)c1 (stereo not shown)

>  <Assay Target>
Glucocorticoid Receptor (Homo sapiens)

>  <Quantitative Readout>
148

$$$$
>  <Compound>
COc1cccc(C2CC3(C)C(CCC3(O)C#Cc3ccc(S(C)(=O)=O)cc3)C3CCC4=CC(=O)CCC4=C23)c1 (stereo not shown)

>  <Assay Target>
Glucocorticoid Receptor (Homo sapiens)

>  <Quantitative Readout>
155

$$$$
>  <Compound>
COc1cccc(C2CC3(C)C(CCC3(O)C#Cc3ccc(O)cc3)C3CCC4=CC(=O)CCC4=C23)c1 (stereo not shown)

>  <Assay Target>
Glucocorticoid Receptor (Homo sapiens)

>  <Quantitative Readout>
109

$$$$
>  <Compound>
COc1cccc(C2CC3(C)C(CCC3(O)C#Cc3cccc(C=O)c3)C3CCC4=CC(=O)CCC4=C23)c1 (stereo not shown)

>  <Assay Target>
Glucocorticoid Receptor (Homo sapiens)

>  <Quantitative Readout>
159

$$$$
>  <Compound>
COc1cccc(C2CC3(C)C(CCC3(O)C#CC(C)(C)C)C3CCC4=CC(=O)CCC4=C23)c1 (stereo not shown)

>  <Assay Target>
Glucocorticoid Receptor (Homo sapiens)

>  <Quantitative Readout>
85

$$$$
